- Measurement target: T1, human PXR-GST (Invitrogen) (human, UniProt O75469 111-434, limits assumed)
- T1 construct: Captured on an anti-GST antibody chip; the whole natural protein is named; also called GST-PXR; GST-tagged PXR; not shown: GST tag
- T1 sequence (looked up): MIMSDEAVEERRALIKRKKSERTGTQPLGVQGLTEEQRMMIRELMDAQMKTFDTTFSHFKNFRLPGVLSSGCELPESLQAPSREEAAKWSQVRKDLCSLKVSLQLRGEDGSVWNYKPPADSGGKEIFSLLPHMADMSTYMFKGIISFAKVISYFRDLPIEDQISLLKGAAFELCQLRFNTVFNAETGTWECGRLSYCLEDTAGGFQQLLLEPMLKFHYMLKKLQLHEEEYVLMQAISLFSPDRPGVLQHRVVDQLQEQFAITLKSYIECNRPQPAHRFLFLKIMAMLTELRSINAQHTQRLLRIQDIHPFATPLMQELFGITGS
- Test name: SPR, Biacore T100; human PXR-GST captured on anti-GST antibody chip;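 further: binding rate constants and Kd derived from kinetic cycles using the Biacore T100 analysis software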
Measured property: log10 of koff (log10 of the value in s⁻¹)
Units before log transform: s⁻¹; reported quantity: koff; transform: log10.

Here are 5 binders together with their reported answers.
INSERT INTO results (binder, measured_property, measured_result) VALUES
  ('Adnectin-2 (designed binder) MASTSGVSDVPRDLEVVAATPTSLLISWDAPAVTVNNYRITYQPLLQGSSIQHFDVPGSKSTATISGLKPGVGYQITVYASTYTHSKAYYSLPISIYYRTEGSGSHHHHHH', 'log10 of koff', -2.34),
  ('Adnectin-8 (designed binder) MGVSDVPRDLEVVAATPTSLLISWSQPGRYVKYYRITYGETGGNSPVQEFTVPNDTYTATISGLKPGVDYTITVYAVYGKYGPYYGYDPISINYRTEIDKPSQHHHHHH', 'log10 of koff', -3.74),
  ('Adnectin-4 (designed binder) MASTSGVSDVPRDLEVVAATPTSLLISWDAPAVTVHSYYITYQELQHHSVPQGFQVPGSKSTATISGLKPGVAYQIAVYAFTGPGLPPSDAPPIVIYYRTEGSGSHHHHHH', 'log10 of koff', -3.77),
  ('Adnectin-3 (designed binder) MASTSGVSDVPRDLEVVAATPTSLLISWDAPAVPVSKYVIYYWPGALISSMQAFKVPGSKSTATISGLKPGVLYSIVVDALTGDGQGSYVWDPITITYRTEGSGSHHHHHH', 'log10 of koff', -3.42),
  ('Adnectin-5 (designed binder) MGVSDVPRDLEVVAATPTSLLISWKYPYETISYYRITYGETGGNSPVQEFTVPYYRSTATISGLKPGVDYTITVYAVEASAPYSDGGSPISINYRTEIDKPSQHHHHHH', 'log10 of koff', -2.57);

Now turn to the next binder.
// recorded log10 of koff for Adnectin-1 (designed binder, Isolated from an NP1 library; purified by Ni-agarose) MASTSGSTHYYKGTADLEVVAATPTSLLISWPPPYYVEGVTVFRITYGETGGNSPVQEFTVPYWTETATISGLKPGVDYTITVYAEMYPGSPWAGQVMDIQPISINYRTEGSGSHHHHHH : -2.92

Source: patent US20130245238A1
